- measurementDescription: CCTE_Deisenroth_5AR_NBTE_donor: CCTE's 5alpha-reductase NanoBRET Target Engagement Assay […], Deisenroth Lab (AID 2284319)
- runConditions: actives raise or lower the signal
The source made the active and inactive calls. How the source made its calls: active means hit-call score of the fitted dose curve at least 0.9, where 1 is the maximum; inactive means score below 0.9.
Outcomes: label 1 for active, label 0 for inactive

| molecule | assignedClass |
| --- | --- |
| N#CCCC(Br)(C#N)CBr (stereo unspecified) | label 1 |
| CCOP(=S)(OCC)O/N=C(\C#N)c1ccccc1 | label 0 |
| O=c1[nH]c(=O)n(Cl)c(=O)n1Cl | label 0 |
| O=S1(=O)OC(c2cc(Br)c(O)c(Br)c2)(c2cc(Br)c(O)c(Br)c2)c2ccccc21 | label 0 |
| O=c1nc(O)n(Cl)c(=O)n1Cl | label 0 |
| CC(=Cc1ccccc1)[N+](=O)[O-] | label 0 |

====

- targetOrSystem: Estrogen receptor (Homo sapiens) (UniProt P03372)
- Sequence (P03372 whole entry, looked up): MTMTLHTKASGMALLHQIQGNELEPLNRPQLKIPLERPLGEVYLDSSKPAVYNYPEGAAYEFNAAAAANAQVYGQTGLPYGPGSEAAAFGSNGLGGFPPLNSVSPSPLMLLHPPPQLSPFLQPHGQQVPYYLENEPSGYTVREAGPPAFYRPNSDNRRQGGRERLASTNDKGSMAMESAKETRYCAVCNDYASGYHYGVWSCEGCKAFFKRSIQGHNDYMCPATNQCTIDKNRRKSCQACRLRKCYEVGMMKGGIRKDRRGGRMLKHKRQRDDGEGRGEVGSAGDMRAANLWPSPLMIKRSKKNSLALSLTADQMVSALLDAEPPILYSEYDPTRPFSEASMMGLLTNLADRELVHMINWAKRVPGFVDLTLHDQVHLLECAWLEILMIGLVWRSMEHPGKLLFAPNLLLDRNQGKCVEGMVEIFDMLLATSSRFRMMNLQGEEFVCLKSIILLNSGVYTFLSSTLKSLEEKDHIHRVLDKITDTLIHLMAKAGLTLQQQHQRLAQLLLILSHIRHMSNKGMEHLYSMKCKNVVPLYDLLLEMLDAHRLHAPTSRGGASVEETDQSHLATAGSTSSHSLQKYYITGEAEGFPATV
- measurementDescription: ATG_ERa_TRANS: Attagene TRANS-FACTORIAL HepG2 Assay for human Estrogen Receptor alpha (ERa) (AID 2282970)
- runConditions: HepG2 Attagene TRANS ERa GAL4 reporter, mRNA
Inconclusive results are not listed. Active and inactive are the calls of the source. How the source made its calls: active means hit-call score of the fitted dose curve at least 0.9, where 1 is the maximum; inconclusive means response in the unintended direction; inactive means score below 0.9.
Labels: active, inactive

| compound | targetOrSystem | assignedClass |
| --- | --- | --- |
| O=C(Cc1ccccc1)OCCc1ccccc1 | Estrogen receptor (Homo sapiens) (UniProt P03372) | inactive |
| Oc1ccc(Cc2ccc(O)cc2)cc1 | Estrogen receptor (Homo sapiens) (UniProt P03372) | active |
| CCOP(=S)(OCC)Oc1ccc(Cl)cc1Cl | Estrogen receptor (Homo sapiens) (UniProt P03372) | active |
| [Cl][Sn]([c]1ccccc1)([c]1ccccc1)[c]1ccccc1 | Estrogen receptor (Homo sapiens) (UniProt P03372) | inactive |
| Cc1ccc(CCl)cc1 | Estrogen receptor (Homo sapiens) (UniProt P03372) | inactive |
| Cc1ccc2nc3sc(=O)sc3nc2c1 | Estrogen receptor (Homo sapiens) (UniProt P03372) | inactive |
| CCN(N=O)C(N)=O | Estrogen receptor (Homo sapiens) (UniProt P03372) | inactive |
| CCOP(=O)(OCC)OC(=CCl)c1ccc(Cl)cc1Cl | Estrogen receptor (Homo sapiens) (UniProt P03372) | active |
| CCOP(=O)(OCC)SCCSCC | Estrogen receptor (Homo sapiens) (UniProt P03372) | inactive |
| CCCCOC(=O)COC(=O)c1ccccc1C(=O)OCCCC | Estrogen receptor (Homo sapiens) (UniProt P03372) | inactive |
| CC(C)=CC1C(C(=O)OCc2cccc(Oc3ccccc3)c2)C1(C)C (centres undefined) | Estrogen receptor (Homo sapiens) (UniProt P03372) | active |
| CN(C1CCCCC1)C1CCCCC1 | Estrogen receptor (Homo sapiens) (UniProt P03372) | inactive |
| Nc1ccc(Br)cc1 | Estrogen receptor (Homo sapiens) (UniProt P03372) | inactive |
| O=C(O)COc1ccc(Cl)cc1 | Estrogen receptor (Homo sapiens) (UniProt P03372) | inactive |

====

- measurementDescription: CCTE_Shafer_MEA_dev_firing_rate_mean: CCTE's Neural Network Formation Assay for Mean Firing Rate, Shafer Lab (AID 2284031);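 further: AUC of well mean spike rate recorded on DIV 5 7 9 and 12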
Activity calls are given as the source filed them. Rule for the calls: active = hit-call score of the fitted dose curve at least 0.9, where 1 is the maximum; inactive = score below 0.9.
Classes used: active, inactive

| molecule | assignedClass |
| --- | --- |
| NC(=O)c1ccc(N)nc1 | active |
| CC(F)(F)CC(F)(F)F | inactive |
| O=S(=O)(F)C(F)(F)C(F)(F)C(F)(F)C(F)(F)F | inactive |
| Cc1ccccc1OP(=O)(Oc1ccccc1C)Oc1ccccc1C | inactive |
| C=CCOC(F)(C(F)(F)F)C(F)(F)F | inactive |
| CC(=O)C(F)(F)C(F)(F)F | inactive |
| CCOCn1c(-c2ccc(Cl)cc2)c(C#N)c(Br)c1C(F)(F)F | active |
| Cc1cc(C(F)(C(F)(F)F)C(F)(F)F)ccc1NC(=O)c1cccc(I)c1C(=O)NC(C)(C)CS(C)(=O)=O | inactive |
| OC(Cc1ccccc1Cl)(Cn1[nH]cnc1=S)C1(Cl)CC1 (stereo unspecified) | active |
| CC1(C)[C@H](C(=O)O[C@H](C#N)c2cccc(Oc3ccccc3)c2)[C@@H]1/C=C(\Cl)C(F)(F)F | inactive |
| C=CC(F)(C(F)(F)F)C(F)(F)C(F)(F)F (stereo unspecified) | inactive |

src = PubChem BioAssay (EPA / NIEHS)
